Examples of compounds with documented pIC50 follow.
System: human lung cancer cell line A549
Run description: cytotoxicity against A549, MTT method
Assay type: cell-based
Cond: Homo sapiens, A549; MTT, 72 h, n = 3
// pIC50: -log10(molar conc.)

                                   compound  assay_result
0  C=C1C(=O)O[C@H]2C3=C(C)CCC(=O)[C@]3(C)C[C@H](OC(=O)C=C(C)C)[C@@H]12 [Compound 1, Crossostenin A]          5.53
1  C=C1C(=O)O[C@H]2C3=C(C)CCC(=O)[C@]3(C)C[C@H](OC(=O)/C(C)=C/C)[C@@H]12 [Compound 2, Crossostenin B]          5.64

Here is the next item to consider.
So what does the record say about pIC50 for CC1=C2C3OC(=O)C(CN4CCCC4C(=O)O)C3C(O)CC2(C)C(=O)CC1 (stereo not drawn) [Compound 7, Crossoseamine E] ?
4.23

###

System: Vero cells
Run description: cytotoxicity against Vero cell line, MTT method
Assay type: cell-based
Cond: Chlorocebus sabaeus, 72 h, n = 3
Property: IC50; scope: individual compounds
// note: answer is a bare numeric in µM

Example cases with answers are listed next.
Compound	IC50 (µM)
COc1cccc2c1C(=O)c1c(O)c3c(c(O)c1C2=O)C[C@@](O)(C(=O)CO)C[C@@H]3O[C@H]1C[C@H](N)[C@H](O)[C@H](C)O1 [doxorubicin, reference compound]	3.82
C=C(C(=O)OC)[C@@H]1[C@@H](OC(=O)/C(C)=C/C)C[C@@]2(C)C(=O)CCC(C)=C2[C@H]1O	6.2
CC(=O)OC1CC2(C)C(=O)CCC(C)=C2C2OC(=O)C(CN3CCCC3C(=O)O)C12 (stereo not shown)	11.4

Next, consider the following compound.
// query IC50 value for entry C=C1C(=O)O[C@H]2C3=C(C)CCC(=O)[C@]3(C)C[C@H](OC(=O)C=C(C)C)[C@@H]12
5.99

###

System: human lung cancer cell line A549
Run description: cytotoxicity against A549, MTT method
Type: cell-based
Cond: Homo sapiens, A549; MTT, 72 h, n = 3
Property name: pIC50
# pIC50 is unitless: minus log10 of the molar concentration; print number only

Previously resolved entries follow.
Molecule	pIC50
CC(=O)OC1CC2(C)C(=O)CCC(C)=C2C2OC(=O)C(CN3CCCC3C(=O)O)C12 (centres unmarked)	4.76
C=C(C(=O)OC)[C@@H]1[C@@H](OC(=O)/C(C)=C\C)C[C@@]2(C)C(=O)CCC(C)=C2[C@H]1O	4.77
COc1cccc2c1C(=O)c1c(O)c3c(c(O)c1C2=O)C[C@@](O)(C(=O)CO)C[C@@H]3O[C@H]1C[C@H](N)[C@H](O)[C@H](C)O1 [doxorubicin, reference compound]	6.35
C=C(C(=O)OC)[C@@H]1[C@@H](OC(=O)/C(C)=C/C)C[C@@]2(C)C(=O)CCC(C)=C2[C@H]1O	5.25

Then there is this molecule:
Request: pIC50, test system human lung cancer cell line A549, entry CC1=C2C3OC(=O)C(CN4CCCC4C(=O)O)C3CCC2(C)C(=O)CC1 (centres unmarked)
4.08

###

Catalogue of IC50 readings, one per entry.
Test system: Vero cells
Run description: cytotoxicity against Vero cell line, MTT method
Assay type: cell-based
Cond: Chlorocebus sabaeus, 72 h, n = 3
Method: The anti-Leishmania major activities of the isolated compounds were evaluated using an MTT assay according to an established protocol. […] The absorbance of formazan solution in DMSO was measured using a microplate reader at 550 nm. […] The viability was calculated by the absorbance of formazan at 550 nm using a microplate reader. […]

Some entries whose results are on file:
                                   compound  assay_result
0  C=C1C(=O)O[C@H]2C3=C(C)CCC(=O)[C@]3(C)C[C@H](OC(=O)/C(C)=C/C)[C@@H]12       7.84 µM
1  CC1=C2C3OC(=O)C(CN4CCCC4C(=O)O)C3CCC2(C)C(=O)CC1 (stereo not shown)       48.5 µM
2  C=C(C(=O)OC)[C@@H]1[C@@H](OC(=O)/C(C)=C\C)C[C@@]2(C)C(=O)CCC(C)=C2[C@H]1O       17.2 µM

Let us examine a further case.
Hi! What's the reported IC50 for CC1=C2C3OC(=O)C(CN4CCCC4C(=O)O)C3C(O)CC2(C)C(=O)CC1 (stereo not shown) on Vero cells?
23.8 µM
